Numbers sourced from patent US12534451B2.

The listing below reports log10 of IC50 for compounds tested on UniProt:Q9H999.
Sequence (Q9H999 whole entry): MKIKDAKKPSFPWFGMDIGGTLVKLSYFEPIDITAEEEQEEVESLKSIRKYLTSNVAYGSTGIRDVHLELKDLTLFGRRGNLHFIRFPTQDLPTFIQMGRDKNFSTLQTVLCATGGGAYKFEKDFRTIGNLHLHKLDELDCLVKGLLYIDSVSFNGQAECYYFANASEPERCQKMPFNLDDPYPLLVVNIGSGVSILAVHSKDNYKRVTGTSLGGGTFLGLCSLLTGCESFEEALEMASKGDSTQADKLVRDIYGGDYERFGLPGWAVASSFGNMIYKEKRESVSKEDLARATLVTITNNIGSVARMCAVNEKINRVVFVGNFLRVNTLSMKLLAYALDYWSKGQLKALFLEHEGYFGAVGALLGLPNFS
Values below are the log10 of the recorded IC50, with nM as the unit.

# count of solved cases: 6
CC(C)c1ccc(NC(=O)N2CCN(c3nc4c(F)cc(F)cc4s3)CC2)cc1 | 0.02
CN(C)c1ccc(CC(=O)N2CCN(c3nc4cccnc4s3)CC2)cc1 | 2.59
C[C@H]1CN(C(=O)Cc2ccc(C3CC3)cc2)CCN1c1nc2cc(F)cnc2o1 | 0.14
CS(=O)(=O)Nc1ccc(CC(=O)N2CCN(c3nc4ncc(F)cc4o3)CC2)cc1 | 0.29
O=C(Cc1ccc(C2CC2)cc1F)N1CCN(c2nc3ncc(Cl)cc3o2)CC1 | -0.09
O=C(Cc1ccc(C2CC2)cc1)N1CCN(c2nc3ccc(F)cc3s2)CC1 | 0.59

For reference, reported log10 of IC50 for CS(=O)(=O)Nc1ccc(CC(=O)N2CCN(c3ccc(Cl)nn3)CC2)cc1 stands at 0.58

For reference, reported log10 of IC50 for O=C(Cc1ccc(C2CC2)c(F)c1)N1CCN(c2nc3ncc(Cl)cc3o2)CC1 stands at 0.75

For reference, reported log10 of IC50 for O=C(Cc1ccc(C2CC2)cc1)N1CCN(c2nc3ccccc3o2)CC1 stands at 2.24
